# system: T1, mouse GIP receptor (mouse, UniProt Q0P543 19-460)
# T1 sequence (looked up): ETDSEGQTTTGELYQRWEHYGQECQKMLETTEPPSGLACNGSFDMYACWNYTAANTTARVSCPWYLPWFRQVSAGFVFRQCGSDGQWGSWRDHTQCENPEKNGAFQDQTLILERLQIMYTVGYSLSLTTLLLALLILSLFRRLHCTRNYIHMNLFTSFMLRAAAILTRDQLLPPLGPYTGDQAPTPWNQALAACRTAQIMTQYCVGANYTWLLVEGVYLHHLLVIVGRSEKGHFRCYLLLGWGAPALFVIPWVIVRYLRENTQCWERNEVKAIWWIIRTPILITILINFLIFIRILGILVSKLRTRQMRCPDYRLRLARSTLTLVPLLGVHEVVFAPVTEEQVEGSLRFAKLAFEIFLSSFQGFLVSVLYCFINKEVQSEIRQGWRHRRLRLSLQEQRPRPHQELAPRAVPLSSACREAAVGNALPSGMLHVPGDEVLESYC
# protocol: cell-based or functional assay
measurement.label: cAMP EC50 (nM)
Please give a number only; it is taken to be in nM.

binder | unit.name | cAMP EC50
IP253 (Fc fusion) YSEGTFTSDYSKLLDEEAVRLFIEWLLAGAPPGGSGSTASSGSGSATGGGGAATHTCPPCPAPEF | nM | 0.61
IP403 (Fc fusion) YSEGTHTSDLRILLEEEAVRLFIEKLLAGGGSGGGGSGGGGSGGGGSGGGGSGGGGSGGGGSGGGGSACPPC | nM | 21

Continue with the binder presented below.
Can you share its cAMP EC50? I mean this binder: IP249 (Fc fusion) YSEGTFTSDYSKLLEEEAVRLFIEWLLAQKAAAGGSGSTASSGSGSATGGGGAATHTCPPCPAPEF
180
